# measured-target: Hsp90 in C. albicans (SC5314) lysate (Candida albicans)
# Construct: endogenous in cells; host or cells: C. albicans SC5314 whole-cell lysate
# Sequence (P46598 whole entry): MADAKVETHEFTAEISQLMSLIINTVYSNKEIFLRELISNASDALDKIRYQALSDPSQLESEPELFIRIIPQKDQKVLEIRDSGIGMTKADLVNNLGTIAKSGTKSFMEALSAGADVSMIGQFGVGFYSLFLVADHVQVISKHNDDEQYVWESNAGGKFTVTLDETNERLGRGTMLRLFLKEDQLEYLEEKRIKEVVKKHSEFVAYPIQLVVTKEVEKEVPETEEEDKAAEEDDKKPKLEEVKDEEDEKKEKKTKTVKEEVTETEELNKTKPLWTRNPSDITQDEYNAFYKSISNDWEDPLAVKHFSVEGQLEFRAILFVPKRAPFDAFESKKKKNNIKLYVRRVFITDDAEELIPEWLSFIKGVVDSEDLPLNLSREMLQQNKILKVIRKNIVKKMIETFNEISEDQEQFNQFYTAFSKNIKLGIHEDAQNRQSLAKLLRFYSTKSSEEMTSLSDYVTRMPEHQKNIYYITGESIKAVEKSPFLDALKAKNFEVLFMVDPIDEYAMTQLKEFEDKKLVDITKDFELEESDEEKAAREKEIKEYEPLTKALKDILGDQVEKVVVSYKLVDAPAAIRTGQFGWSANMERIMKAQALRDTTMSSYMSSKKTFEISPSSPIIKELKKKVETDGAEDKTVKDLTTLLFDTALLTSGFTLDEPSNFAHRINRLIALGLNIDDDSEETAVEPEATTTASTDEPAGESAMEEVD
# protocol-details: biochemical
# Assay type: binding
# run-parameters: ratio of GdA-normalized EC50s, human over fungal lysate
Assignment: determine reported HepG2/SC5314 for the given compounds.
Please give only the number in your answer, with no unit.

Ask: Recorded HepG2/SC5314 for Cc1ccc(CON=C2C=CC=CC3OC3CC(C)OC(=O)c3c(O)cc(O)c(Cl)c3C2)cc1 (mixture of isomers) [compound 218] , please?
Reply: 1.973

Ask: Recorded HepG2/SC5314 for CCON=C1/C=C/C=C\[C@H]2O[C@H]2C[C@@H](C)OC(=O)c2c(O)cc(O)c(Cl)c2C1 [compound 333] , please?
Reply: 1.134

Ask: Recorded HepG2/SC5314 for C[C@@H]1C[C@@H]2O[C@@H]2/C=C\C=C\C(=NOCc2ccccc2Cl)Cc2c(Cl)c(O)cc(O)c2C(=O)O1 [compound 4] , please?
Reply: 2.89

Ask: Recorded HepG2/SC5314 for CC1CC2OC2C=CC=CC(=NOCCN2CCCC2=O)Cc2c(Cl)c(O)cc(O)c2C(=O)O1 (stereo not drawn) [KF58333, reference compound] , please?
Reply: 1.165

Ask: Recorded HepG2/SC5314 for CC1CC2OC2C=CC=CC(=NOCc2cccc(F)c2)Cc2c(Cl)c(O)cc(O)c2C(=O)O1 (mixture of isomers) [compound 227] , please?
Reply: 1.415

Ask: Recorded HepG2/SC5314 for COc1ccc(CON=C2C=CC=CC3OC3CC(C)OC(=O)c3c(O)cc(O)cc3C2)cc1 (stereo not drawn) [CMLD013075] , please?
Reply: 4.5595

Ask: Recorded HepG2/SC5314 for COc1ccccc1CON=C1C=CC=CC2OC2CC(C)OC(=O)c2c(O)cc(O)c(Cl)c2C1 (mixture of isomers) [compound 226] , please?
Reply: 1.34

Ask: Recorded HepG2/SC5314 for CC1CC2OC2C=CC=CC(=NOCc2ccccc2)Cc2c(Cl)c(O)cc(O)c2C(=O)O1 (mixture of isomers) [compound 217] , please?
Reply: 0.6913

Ask: Recorded HepG2/SC5314 for COc1ccc(CON=C2C=CC=CC3OC3CC(C)OC(=O)c3c(O)cc(O)c(Cl)c3C2)cc1 (mixture of isomers) [compound 224] , please?
Reply: 1.707
